molecular target: Trace amine-associated receptor 1 (Homo sapiens) (UniProt Q96RJ0); assay: blockers of beta-PEA-driven TAAR1 calcium signal – Fluo-8 calcium fluorescence, CHO RD-HGA16 cells, primary screen (AID 624466); conditions: CHO RD-HGA16 TAAR1, Fluo-8 calcium fluorescence, antagonist; at 3 µM; hits give high values;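 also: 0% = DMSO plus EC80 beta-PEA response and 100% = DMSO alone without agonist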
Sequence (Q96RJ0 whole entry, looked up): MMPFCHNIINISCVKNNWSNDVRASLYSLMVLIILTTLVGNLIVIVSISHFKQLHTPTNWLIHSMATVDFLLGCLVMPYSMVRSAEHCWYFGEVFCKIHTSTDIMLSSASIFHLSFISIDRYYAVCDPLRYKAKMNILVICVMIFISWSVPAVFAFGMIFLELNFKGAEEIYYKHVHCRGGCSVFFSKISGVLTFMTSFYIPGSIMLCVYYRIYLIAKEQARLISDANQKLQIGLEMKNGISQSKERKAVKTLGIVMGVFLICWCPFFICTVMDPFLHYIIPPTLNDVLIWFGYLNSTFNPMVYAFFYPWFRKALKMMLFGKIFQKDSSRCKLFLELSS
Out of some 360,000 compounds screened, about 5,400 (1.5%) were called active. For the sample, actives were picked, then their nearest neighbours and some compounds at random.
quantity: inhibition (%)

- O=C(NCCc1c[nH]c2ccccc12)C1CCN(Cc2ccc(Br)cc2)CC1: 2.79
- CN(CCO)C(=O)c1nc[nH]c1C(=O)N(C)Cc1ccccc1: -10.4
- CCOc1ccc(CNC(=O)CCC(=O)N2CCSc3ccccc32)cc1: -0.53
- COc1ccc(CC(N)c2csc(NC(=O)Cc3ccccc3)n2)cc1 (stereo unspecified): 15.7
- COc1ccc(CC(N)c2csc(NC(=O)NC(c3ccccc3)c3ccccc3)n2)cc1 (stereo unspecified): 12.4
- c1ccc(Nc2nc(N3CCOCC3)c3ccccc3n2)cc1: 74.1
- COc1cccc(CNc2nc(NCc3ccccc3OC)nc3ccsc23)c1: 36.8
- Cc1ccc2cc(C)c(N3CCC(C)CC3)nc2c1: -22.1
- Cc1cc(C)c2cc(C#N)c(N3CCNCC3)nc2c1: 76.6
- COc1cccc(CNc2nc(NCc3cccs3)nc3ccsc23)c1: 76.6
- CN(C(=O)CN(CCO)CC(=O)N(C)C(C)(C)Cc1ccccc1)C(C)(C)Cc1ccccc1: 86.5

* * *

target: Trace amine-associated receptor 1 (Homo sapiens); assay: blockers of beta-PEA-driven TAAR1 calcium signal – Fluo-8 calcium fluorescence, CHO RD-HGA16 cells, primary screen (AID 624466); details: CHO RD-HGA16 TAAR1, Fluo-8 calcium fluorescence, antagonist; at 3 µM; hits give high values;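 also: 0% = DMSO plus EC80 beta-PEA response and 100% = DMSO alone without agonist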
The whole screen tested about 360,000 compounds, of which about 5,400 (1.5%) were called active. For the sample, actives were picked, then their nearest neighbours and some compounds at random.
# inhibition listing for each entry below
quantity: inhibition (%)

- O=C(CSc1nc2[nH]c(=O)[nH]c(=O)c2s1)Nc1cccc(F)c1: -17.1
- CCOc1ccccc1N1CN(Cc2ccccc2)CNC1=S: -9.06
- Cc1ccccc1N/C(SCc1ccc(Cl)cc1)=C(/C#N)C(N)=O: -9.21
- Cc1ccc(C(=O)N/C(=C\c2cn(S(=O)(=O)N(C)C)c3ccccc23)C(=O)N2CCCC2)cc1: 39.7
- CCOC(=O)c1sc(=NC(=O)c2ccc(Br)cc2)n(C)c1C: -21.9
- CCCCCCCCNS(=O)(=O)CCNC1CCCCC1: -6.98
- Oc1ccc(/C=N/Nc2nc(-c3ccccc3F)nc3ccccc23)c(O)c1: 82.1
- Cc1ccc(C)c(S(=O)(=O)n2cnc3ccccc32)c1: -29.5
- Cc1cccc(NC(=S)NCCc2ccc(Cl)cc2)c1C: -16.5
- O=C(Cc1ccc(Cl)cc1)NC(=S)Nc1ccccc1O: 104
- Cc1cccc(C)c1NC(=O)C(c1ccc(C(F)(F)F)cc1)n1c(=O)c(-c2ccco2)nc2ccccc21 (stereo unspecified): -9.78

* * *

biological target: Trace amine-associated receptor 1 (Homo sapiens); test: blockers of beta-PEA-driven TAAR1 calcium signal – Fluo-8 calcium fluorescence, CHO RD-HGA16 cells, primary screen (AID 624466); conditions: CHO RD-HGA16 TAAR1, Fluo-8 calcium fluorescence, antagonist; at 3 µM;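 also: 0% = DMSO plus EC80 beta-PEA response and 100% = DMSO alone without agonist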
The campaign covered roughly 360,000 compounds. About 5,400 (1.5%) were called active.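 Rule for the calls: active = inhibition above a per-plate cutoff, the mean inhibition of test compounds on that plate plus 3 SD (cut at about 49% in these data); inactive = the rest.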 This is one part of a sample in which actives are shown more often than they occur.
Labels: yes (1) for active, no (0) for inactive

• O=C(NCc1ccccc1)[C@H]1CCCN1C(=O)[C@H]1CCCN1C(=O)N1CCOCC1 = no (0)
• CC(C)N(Cc1ccccc1)C(=O)COC(=O)c1ccccc1SCC(=O)N1CCCC1 = yes (1)
• CCN(CC(=O)NCc1ccco1)S(=O)(=O)c1ccc(F)cc1 = no (0)
• COC(=O)Cc1nnn2c1[C@H](C)[C@H](c1ccccc1Br)OCC2 = yes (1)
• COC(=O)C1(C(=O)OC)C/C=C\CN(S(=O)(=O)c2ccccc2[N+](=O)[O-])CCC1 = no (0)
• COC(=O)Cc1nnn2c1[C@H](C)[C@@H](OC)c1cc(Br)ccc1-2 = no (0)
• COc1ccc(S(=O)(=O)N(CC(=O)NCc2ccco2)c2ccc(F)cc2)cc1 = yes (1)
• CCOC(=O)C1CCCN(C(=O)c2cccc(S(=O)(=O)N3CCOCC3)c2)C1 (stereo not given) = no (0)
• O=C(N/N=C/c1ccc(OC(=O)c2ccccc2Cl)cc1)c1ccc(O)cc1 = yes (1)
• CCNC(=O)c1cc2c(c(-c3cccc(-c4cncnc4)c3)n1)[C@H](CCO)N(C(C)=O)C2 = no (0)
• CC(C)NC(=O)N1Cc2cc(C(=O)NCC(F)(F)F)nc(-c3cccc(-c4cc5ccccc5o4)c3)c2[C@@H]1CCO = yes (1)
• CCOC(=O)N1CCN(C(=O)C[C@@H]2C[C@@]3(C(=O)OC)CCCCC=C3N(CCC3=CCCCC3)C2=O)CC1 = no (0)
• COC(=O)Cc1nnn2c1[C@H](C)[C@H](c1ccccc1[N+](=O)[O-])OCC2 = yes (1)
• CCOc1cc(/C=N/NC(=O)c2c(C)nc3ccc(Cl)cn23)ccc1O = no (0)
• CN(CC(=O)Nc1ccccc1Cl)C(=O)c1ccccc1SCC(=O)N1CCCC1 = no (0)
• CSc1ccccc1C(=O)OCC(=O)N1CCN(C(C)=O)CC1 = no (0)
• Cc1ccc(S(=O)(=O)N(CC(=O)NCc2ccco2)c2ccccc2C)cc1 = no (0)
• O=C(N/N=C/c1ccc(OCC2COCCO2)cc1)c1ccc(Br)cc1 (stereo not given) = no (0)
• Cc1ccc2nc(-c3ccc(CN4CCC(n5cc(-c6ccccc6)[nH]c5=O)CC4)cc3)c(-c3ccccc3)nc2c1 = no (0)
• CCOc1ccc(-c2cc(C(=O)N/N=C/c3ccc(O)cc3)c3ccccc3n2)cc1 = no (0)

* * *

molecular target: Trace amine-associated receptor 1 (Homo sapiens); test: blockers of beta-PEA-driven TAAR1 calcium signal – Fluo-8 calcium fluorescence, CHO RD-HGA16 cells, primary screen (AID 624466); details: CHO RD-HGA16 TAAR1, Fluo-8 calcium fluorescence, antagonist; at 3 µM; hits give high values;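 also: 0% = DMSO plus EC80 beta-PEA response and 100% = DMSO alone without agonist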
In all, about 360,000 compounds went through this assay and about 5,400 (1.5%) were called active. Many of the other results were omitted from the sample, so actives are more common in it than they were.
quantity: inhibition (%)

- C/C(=N/O)c1ccc(N2C(=O)C3C4C=CC(C3C2=O)C2C3C(=O)N(c5ccc(/C(C)=N/O)cc5)C(=O)C3C42)cc1 (stereo not given): -2.86
- CCCCCCCCN1C(=O)[C@@H](CC(=O)N2CCN(C(=O)OCC)CC2)C[C@@]2(C(=O)OC)C1=C[C@H](C1CCCC1)O[C@@H]2C: -10.4
- CSCc1ccc(C(=O)Nc2cc(C)cc(C)c2)cc1: 16.7
- CS(=O)(=O)N1CCc2cc(C(=O)Nc3ccccc3Br)ccc21: 23.9
- COC(=O)Nc1nc2ccc(C(=O)C3CC3)cc2[nH]1: -3.23
- Cc1nc2c(C(=O)NCc3cccs3)cnn2c(C)c1Cc1ccc(F)cc1: 9.05
- CCOC(=O)C(C)N(c1ccccc1Cl)S(C)(=O)=O (stereo not given): -3.03
- O=C(Cc1c[nH]c2ccccc12)N/N=C/c1cccc(F)c1: 15.8
- CSC(=S)N/N=C/c1c[nH]c2ccccc12: 88.6
- CC(=O)Nc1cccc(NC(=O)c2ccc3c(c2)CCN3S(C)(=O)=O)c1: 50

* * *

molecular target: Trace amine-associated receptor 1 (Homo sapiens) (UniProt Q96RJ0); assay: blockers of beta-PEA-driven TAAR1 calcium signal – Fluo-8 calcium fluorescence, CHO RD-HGA16 cells, primary screen (AID 624466); conditions: CHO RD-HGA16 TAAR1, Fluo-8 calcium fluorescence, antagonist; at 3 µM; hits give high values;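 also: 0% = DMSO plus EC80 beta-PEA response and 100% = DMSO alone without agonist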
The campaign covered roughly 360,000 compounds. About 5,400 (1.5%) were called active. The entries come from a sample that favours actives as a whole.
quantity: inhibition (%)

• O=C(O)CC/C(=N\NC(=O)c1ccc(F)cc1)c1ccc(Br)cc1 = 3.38
• COc1ccc(S(=O)(=O)N2CCOC2CNC(=O)C(=O)NCc2ccncc2)cc1C (configuration not stated) = -15.9
• CC(=NNC(=O)c1ccc2nc[nH]c2c1)c1ccc(Br)cc1 = 51.9
• O=C(COC(=O)C12CC3CC(CC(O)(C3)C1)C2)NC12CC3CC(CC(C3)C1)C2 = -12.3
• CCC(C)(C)NC(=O)c1cc([N+](=O)[O-])ccc1N1CCCCC1 = -10.4
• Cc1c(C(=O)NCc2ccccc2)cnn1-c1ccccc1 = -4.01
• O=C(N/N=C/c1ccc(Cl)c(Cl)c1)c1ccc2nc[nH]c2c1 = 63.3
• CN(C)C1CN(Cc2cn(Cc3ccccc3)nn2)S(=O)(=O)C1 (configuration not stated) = -30.8
• O=C(OCC(=O)N1CCOCC1)c1ccc2ccccc2c1 = -11.6
• CCN(CC)c1ccc(/C=N/NC(=O)c2cnccn2)c(O)c1 = 48.9
• Cc1c(CNCCc2ccccc2)c(C(=O)O)c(C)n1-c1ccccc1 = 65.9
• Cc1cc(Nc2ccc(Br)cc2F)n2ncnc2n1 = -22.8
• CCCn1nc(NS(=O)(=O)c2ccc(F)cc2)c2cc3ccccc3nc21 = 9.03
• COc1ccc(CN(C)C(=O)Cc2c[nH]c3ccccc23)c(OC)c1OC = 4.63
• CC(=O)c1ccc(N2CCN(C(=O)c3ccc4nc[nH]c4c3)CC2)cc1 = -29.8
• C=CCNC(=O)c1cc2nc(C3CC3)cc(C(F)F)n2n1 = 7.57
• C#CCOc1ccc(/C=C2/C(=O)ON=C2C)cc1OCC = 12.6
• O=C1[C@H]2[C@@H](c3ccc(C(F)(F)F)cc3)N[C@]3(CCCN(Cc4ccc(Br)cc4)C3=O)[C@H]2C(=O)N1Cc1ccccc1 = -23.7
• COC(=O)c1cc2c(c3c4cc(F)ccc4n(S(=O)(=O)c4ccccc4)c13)C(=O)N(Cc1ccccc1OC)C2 = -0.96
• CCN(CC)c1ccc(NC(=O)c2ccc(Cl)nc2)cc1 = 6.5
• COc1ccc(CCNC(=O)C(=O)NCC2OCCN2S(=O)(=O)c2ccc(F)cc2)cc1OC (configuration not stated) = -12
• CNC(=O)CSc1nnc(CCc2ccccc2)n1-c1ccccc1 = 10.8
